# subject.of.test: PKM2, human recombinant (Homo sapiens, UniProt P14618)
# Construct: purchased BPS 50295
# Sequence (P14618 whole entry): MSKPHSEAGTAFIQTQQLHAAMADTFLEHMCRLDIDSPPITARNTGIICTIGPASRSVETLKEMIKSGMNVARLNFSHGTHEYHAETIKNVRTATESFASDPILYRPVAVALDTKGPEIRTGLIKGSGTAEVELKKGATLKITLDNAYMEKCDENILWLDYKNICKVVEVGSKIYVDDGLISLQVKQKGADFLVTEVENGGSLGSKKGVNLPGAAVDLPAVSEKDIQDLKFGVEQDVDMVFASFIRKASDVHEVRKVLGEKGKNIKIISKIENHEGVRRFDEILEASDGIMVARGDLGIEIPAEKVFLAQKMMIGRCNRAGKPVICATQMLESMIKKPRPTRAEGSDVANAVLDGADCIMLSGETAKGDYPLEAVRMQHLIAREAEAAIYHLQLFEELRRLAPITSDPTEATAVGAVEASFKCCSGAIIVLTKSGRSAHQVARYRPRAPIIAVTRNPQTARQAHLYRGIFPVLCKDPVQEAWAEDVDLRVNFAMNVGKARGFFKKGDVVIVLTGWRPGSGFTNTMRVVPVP
# assay.explanation: PKM2 enzymatic activity assay (Kinase-Glo Plus luminescence);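 as to Max activity Group: percent increase over no-compound signal after subtracting the no-PKM2 background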
# Format: biochemical
# experimental.setup: 1 h, maximum percent activity; luminescence without compound = 0% activity; read-out: Max activity Group
# Experimental: PKM2 performs the following enzymatic reaction, where the PKM2 substrates, PEP (phosphoenolpyruvate) and ADP, are converted to pyruvate and ATP as follows: […] PKM2 activity assays were performed in duplicates at each concentration. The luminescence data were analyzed using the computer software, GraphPad PRISM®. In the absence of the compound, the luminescence was defined as 0% activity. The percent activity in the presence of each compound was calculated according to the following equation: […]
assay.endpoint: Emax

[Q] Hello, please tell me recorded Emax for this one: COc1ccc(C2CC(c3ccc(NS(=O)(=O)c4ccc(F)cc4)cc3)=NN2C(C)=O)cc1 (single isomer, unassigned) [Compound 12A]
[A] ≤ 130%

[Q] Hello, please tell me recorded Emax for this one: CCNS(=O)(=O)c1ccc(C2=NN(C(C)=O)C(c3ccc(OC)cc3)C2)cc1 (stereo not shown) [Compound 10A]
[A] 130 to 200%

[Q] Hello, please tell me recorded Emax for this one: CCS(=O)(=O)Nc1ccc(C2=NN(C(C)=O)C(c3ccccc3F)C2)cc1 (stereo not shown) [Compound 57A]
[A] ≤ 130%

[Q] Hello, please tell me recorded Emax for this one: COc1ccc(C2CC(c3ccc(NS(=O)(=O)c4cccc(F)c4)cc3)=NN2C(C)=O)cc1 (stereo not shown) [Compound 33A]
[A] 130 to 200%

[Q] Hello, please tell me recorded Emax for this one: COc1ccc(C2CC(c3ccc(NS(=O)(=O)c4cccc(OC)c4)cc3)=NN2C(C)=O)cc1 (racemic) [Compound 18A]
[A] 130 to 200%

[Q] Hello, please tell me recorded Emax for this one: COc1ccc(C2CC(c3ccc(NS(=O)(=O)c4ccccc4C(F)(F)F)cc3)=NN2C(C)=O)cc1 (stereo not shown) [Compound 20A]
[A] 130 to 200%

[Q] Hello, please tell me recorded Emax for this one: COc1ccc(S(=O)(=O)Nc2ccc(C3=NN(C(C)=O)C(c4ccc(F)cc4)C3)cc2)cc1 (stereo not shown) [Compound 45A]
[A] ≤ 130%

[Q] Hello, please tell me recorded Emax for this one: COc1ccc(C2CC(c3ccc(NS(=O)(=O)c4cccc(Cl)c4)cc3)=NN2C(C)=O)cc1 (stereo not shown) [Compound 28A]
[A] ≤ 130%

[Q] Hello, please tell me recorded Emax for this one: COc1ccc(C2CC(c3ccc(NS(=O)(=O)c4c(F)cccc4F)cc3)=NN2C(=O)c2cccnc2)cc1 (stereo not shown) [Compound 15A]
[A] ≥ 200%

[Q] Hello, please tell me recorded Emax for this one: COc1ccc(C2CC(c3ccc(NS(=O)(=O)c4c(F)cccc4F)cc3)=NN2C(=O)c2ccccn2)cc1 (stereo not shown) [Compound 14A]
[A] ≤ 130%

====

# System: H1299 (lung)
# assay.explanation: Cell proliferation assay (CellTiter-Glo Luminescent)
# Format: cell-based, human
# experimental.setup: Homo sapiens, NCI-H1299, 1 mM glucose, 96 hr
# Procedure: 1. Cells were grown according to the ATCC conditions. 2. Cell feeding (passaging) was timed such that the cells were in exponential growth phase at the time of the assay. 3. On day 1, H1299 cells were counted. […] Luminescence was recorded with Flexstation 3. Unless noted otherwise, proliferation of control or compound treated H1299 cells was measured using CellTiter-Glo Luminescent assay following 96 hr incubation of the cells with and without test compounds. […]
assay.endpoint: AC50

[Q] Hello, please tell me recorded AC50 for this one: COc1ccc(C2CC(c3ccc(NS(=O)(=O)c4ccc(Cl)cc4)cc3)=NN2C(C)=O)cc1 (single isomer, unassigned) [Compound 37A]
[A] > 20 µM

[Q] Hello, please tell me recorded AC50 for this one: COc1ccc([C@@H]2CC(c3ccc(NS(=O)(=O)c4ccc(F)cc4)cc3)=NN2C(C)=O)cc1 [Compound 13A]
[A] 10 to 20 µM

[Q] Hello, please tell me recorded AC50 for this one: COc1ccc(C2CC(c3ccc(NS(=O)(=O)c4ccc(C(F)(F)F)cc4)cc3)=NN2C(C)=O)cc1 (stereo not drawn) [Compound 21A]
[A] 10 to 20 µM

[Q] Hello, please tell me recorded AC50 for this one: COc1ccc(C2CC(c3ccc(NS(=O)(=O)c4cccc(OC)c4)cc3)=NN2C(C)=O)cc1 (racemic) [Compound 18A]
[A] > 20 µM

[Q] Hello, please tell me recorded AC50 for this one: COc1ccc(C2CC(c3ccc(NS(=O)(=O)c4ccc(OC)cc4)cc3)=NN2C(C)=O)cc1 (single isomer, unassigned) [Compound 39A]
[A] > 20 µM

[Q] Hello, please tell me recorded AC50 for this one: CCS(=O)(=O)Nc1ccc(C2=NN(C(C)=O)C(c3ccc(OC)cc3)C2)cc1 (racemic) [Compound 1A]
[A] 10 to 20 µM

[Q] Hello, please tell me recorded AC50 for this one: COc1ccccc1C1CC(c2ccc(NS(=O)(=O)c3ccc(F)cc3)cc2)=NN1C(C)=O (stereo not drawn) [Compound 47A]
[A] > 20 µM

[Q] Hello, please tell me recorded AC50 for this one: COc1ccc(C2CC(c3ccc(NS(=O)(=O)c4cccc(OC)c4)cc3)=NN2C(C)=O)cc1 (single isomer, unassigned) [Compound 29A]
[A] > 20 µM

[Q] Hello, please tell me recorded AC50 for this one: COc1ccc(C2CC(c3ccc(NS(=O)(=O)c4cccc(F)c4)cc3)=NN2C(C)=O)cc1 (stereo not drawn) [Compound 33A]
[A] > 20 µM

[Q] Hello, please tell me recorded AC50 for this one: COc1ccc(C2CC(c3ccc(NS(=O)(=O)c4ccc(Cl)cc4)cc3)=NN2C(C)=O)cc1 (racemic) [Compound 26A]
[A] > 20 µM

[Q] Hello, please tell me recorded AC50 for this one: COc1ccc(C2CC(c3ccc(NS(=O)(=O)c4ccc(F)cc4)cc3)=NN2C(C)=O)cc1Cl (stereo not drawn) [Compound 32A]
[A] > 20 µM

[Q] Hello, please tell me recorded AC50 for this one: COc1ccc(S(=O)(=O)Nc2ccc(C3=NN(C(C)=O)C(c4ccc(F)cc4)C3)cc2)cc1 (stereo not drawn) [Compound 45A]
[A] > 20 µM

[Q] Hello, please tell me recorded AC50 for this one: CC(=O)N1N=C(c2ccc(NS(=O)(=O)c3ccc(F)cc3)cc2)CC1c1ccc(F)cc1 (single isomer, unassigned) [Compound 36A]
[A] > 20 µM

[Q] Hello, please tell me recorded AC50 for this one: CC(=O)N1N=C(c2ccc(NS(=O)(=O)c3ccc(F)cc3)cc2)C[C@@H]1c1ccc(C)cc1 [Compound 41A]
[A] 10 to 20 µM

[Q] Hello, please tell me recorded AC50 for this one: COc1ccc(C2CC(c3ccc(NS(=O)(=O)c4cccc(C(F)(F)F)c4)cc3)=NN2C(C)=O)cc1 (stereo not drawn) [Compound 34A]
[A] > 20 µM

====

# System: H1299 (Non-small cell lung carcinoma cell line)
# assay.explanation: Cell proliferation, Assay Protocol I (CellTiter-Glo)
# Assay type: cell-based
# experimental.setup: Homo sapiens, NCI-H1299, 96 total hours of culture
pIC50: −log10 of the molar value.
assay.endpoint: pIC50

[Q] Hello, please tell me recorded pIC50 for this one: CCS(=O)(=O)Nc1ccc(C2=NN(C(C)=O)C(c3ccc(OC)cc3)C2)cc1 (racemic)
[A] 4.00 to 4.40

====

# subject.of.test: PKM2, human recombinant (Homo sapiens, UniProt P14618)
# Construct: purchased BPS 50295
# assay.explanation: PKM2 enzymatic activity assay (Kinase-Glo Plus luminescence)
# Type: biochemical
# experimental.setup: 0.1 nM PKM2, 0.1 mM ADP, 0.5 mM PEP, 1 hour, room temperature; read-out: AC50 group
assay.endpoint: AC50

[Q] Hello, please tell me recorded AC50 for this one: COc1ccc(C2CC(c3ccc(NS(=O)(=O)c4ccc(OC)cc4)cc3)=NN2C(C)=O)cc1 (racemic) [Compound 19A]
[A] ≤ 1000 nM

[Q] Hello, please tell me recorded AC50 for this one: COc1ccc(C2CC(c3ccc(NS(=O)(=O)c4c(F)cccc4F)cc3)=NN2C(=O)c2cccnc2)cc1 (stereo not shown) [Compound 15A]
[A] 1000 to 10000 nM

[Q] Hello, please tell me recorded AC50 for this one: CCNS(=O)(=O)c1ccc(C2=NN(C(C)=O)C(c3ccc(OC)cc3)C2)cc1 (stereo not shown) [Compound 10A]
[A] ≤ 1000 nM

[Q] Hello, please tell me recorded AC50 for this one: CCS(=O)(=O)Nc1ccc(C2=NN(C(C)=O)C(c3ccc(OC)cc3)C2)cc1 (racemic) [Compound 1A]
[A] ≤ 1000 nM

[Q] Hello, please tell me recorded AC50 for this one: CCS(=O)(=O)Nc1ccc(C2=NN(C(C)=O)C(c3ccccc3F)C2)cc1 (stereo not shown) [Compound 57A]
[A] ≤ 1000 nM

[Q] Hello, please tell me recorded AC50 for this one: CC(=O)N1N=C(c2ccc(NS(=O)(=O)c3ccc(F)cc3)cc2)CC1c1ccc(F)cc1 (single isomer, unassigned) [Compound 35A]
[A] ≤ 1000 nM

[Q] Hello, please tell me recorded AC50 for this one: CC(=O)N1N=C(c2ccc(NS(=O)(=O)c3ccc(F)cc3)cc2)CC1c1ccc(F)cc1 (single isomer, unassigned) [Compound 36A]
[A] ≤ 1000 nM

[Q] Hello, please tell me recorded AC50 for this one: COc1ccc(C2CC(c3ccc(NS(=O)(=O)c4ccc(OC)cc4)cc3)=NN2C(C)=O)cc1 (single isomer, unassigned) [Compound 39A]
[A] ≤ 1000 nM

[Q] Hello, please tell me recorded AC50 for this one: COc1ccc(C2CC(c3ccc(NS(=O)(=O)c4cccc(OC)c4)cc3)=NN2C(C)=O)cc1 (racemic) [Compound 18A]
[A] ≤ 1000 nM

[Q] Hello, please tell me recorded AC50 for this one: CCS(=O)(=O)Nc1ccc(C2=NN(C(C)=O)C(c3ccc4c(c3)OCCO4)C2)cc1 (stereo not shown)
[A] ≤ 1000 nM

[Q] Hello, please tell me recorded AC50 for this one: COc1ccc(C2CC(c3ccc(NS(=O)(=O)c4ccccc4)cc3)=NN2C(C)=O)cc1 (stereo not shown) [Compound 17A]
[A] 1000 to 10000 nM

[Q] Hello, please tell me recorded AC50 for this one: COc1ccc(C2CC(c3ccc(NS(=O)(=O)c4ccc(OC)c(F)c4)cc3)=NN2C(C)=O)cc1 (stereo not shown) [Compound 44A]
[A] ≤ 1000 nM

[Q] Hello, please tell me recorded AC50 for this one: COc1ccc(C2CC(c3ccc(NS(=O)(=O)c4ccc5c(c4)OCCO5)cc3)=NN2C(C)=O)cc1 (stereo not shown)
[A] 1000 to 10000 nM

[Q] Hello, please tell me recorded AC50 for this one: COc1ccc(C2CC(c3ccc(NS(=O)(=O)c4ccc(F)cc4)cc3)=NN2C(C)=O)cc1 (racemic) [Compound 6A]
[A] ≤ 1000 nM

[Q] Hello, please tell me recorded AC50 for this one: COc1ccc(C2CC(c3ccc(NS(=O)(=O)c4cccc(F)c4)cc3)=NN2C(C)=O)cc1 (stereo not shown) [Compound 33A]
[A] ≤ 1000 nM

[Q] Hello, please tell me recorded AC50 for this one: COc1ccc(C2CC(c3ccc(NS(=O)(=O)c4ccc(OC)cc4)cc3)=NN2C(C)=O)cc1 (single isomer, unassigned) [Compound 40A]
[A] ≤ 1000 nM

[Q] Hello, please tell me recorded AC50 for this one: CC(=O)N1N=C(c2ccc3c(c2)CCN3S(C)(=O)=O)CC1c1ccc2c(c1)OCCO2 (stereo not shown)
[A] 10000 to 100000 nM

[Q] Hello, please tell me recorded AC50 for this one: CCS(=O)(=O)Nc1ccc(C2=NN(C(=O)c3ccco3)C(c3ccc(OC)cc3)C2)cc1 (stereo not shown) [Compound 53A]
[A] 1000 to 10000 nM

[Q] Hello, please tell me recorded AC50 for this one: COc1ccc(C2CC(c3ccc(NS(=O)(=O)c4cccc(Cl)c4)cc3)=NN2C(C)=O)cc1 (stereo not shown) [Compound 28A]
[A] 1000 to 10000 nM

[Q] Hello, please tell me recorded AC50 for this one: COc1ccc(C2CC(c3ccc(NS(=O)(=O)c4c(F)cccc4F)cc3)=NN2C(=O)c2ccccn2)cc1 (stereo not shown) [Compound 14A]
[A] 1000 to 10000 nM

[Q] Hello, please tell me recorded AC50 for this one: COc1ccc(C2CC(c3ccc(NS(=O)(=O)c4ccc(C(F)(F)F)cc4)cc3)=NN2C(C)=O)cc1 (stereo not shown) [Compound 21A]
[A] ≤ 1000 nM

[Q] Hello, please tell me recorded AC50 for this one: COc1ccc(C2CC(c3ccc(NS(=O)(=O)c4ccccc4C(F)(F)F)cc3)=NN2C(C)=O)cc1 (stereo not shown) [Compound 20A]
[A] ≤ 1000 nM

The measurements presented in this section are drawn from patent US20120302609A1.
